METHOD: BHET released, HPLC; higher = more BHET released; extreme values may be limits of the assay
EXPERIMENTAL_CONDITIONS: PET substrate: aFilm; 60 °C; pH 6.5; 24 h
READOUT: BHET released (mM)

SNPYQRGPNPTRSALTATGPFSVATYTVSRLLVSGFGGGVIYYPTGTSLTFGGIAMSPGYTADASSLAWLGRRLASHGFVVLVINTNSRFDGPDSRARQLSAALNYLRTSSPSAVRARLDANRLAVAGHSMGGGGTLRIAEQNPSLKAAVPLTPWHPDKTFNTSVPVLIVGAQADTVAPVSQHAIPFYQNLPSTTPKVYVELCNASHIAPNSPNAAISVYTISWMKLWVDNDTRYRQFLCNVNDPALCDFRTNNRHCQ [LCC-ICCG I6M]	0
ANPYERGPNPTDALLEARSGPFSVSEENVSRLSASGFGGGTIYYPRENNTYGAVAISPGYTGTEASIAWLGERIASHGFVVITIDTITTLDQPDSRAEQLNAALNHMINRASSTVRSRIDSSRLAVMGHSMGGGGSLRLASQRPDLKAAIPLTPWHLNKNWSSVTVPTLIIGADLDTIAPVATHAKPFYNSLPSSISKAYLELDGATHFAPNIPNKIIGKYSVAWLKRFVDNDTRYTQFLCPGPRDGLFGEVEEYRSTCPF [TfCut2]	0.00244
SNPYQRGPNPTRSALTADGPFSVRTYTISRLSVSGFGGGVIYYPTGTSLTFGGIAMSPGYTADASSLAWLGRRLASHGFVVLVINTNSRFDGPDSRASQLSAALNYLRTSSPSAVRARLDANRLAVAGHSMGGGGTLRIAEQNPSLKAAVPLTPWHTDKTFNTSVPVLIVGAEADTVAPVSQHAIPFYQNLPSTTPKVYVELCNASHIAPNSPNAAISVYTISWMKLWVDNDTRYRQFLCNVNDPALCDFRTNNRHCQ [LCC-ICCG RIP]	0

# credit: the supplement of paper PMC11196671
